- assayMethodText: NCI Yeast Anticancer Drug Screen. Data for the mgt1 strain (AID 153)
- experimentalConditions: S. cerevisiae mgt1 mutant growth inhibition; at 3.7 µM; stronger effect = higher value
Compounds without any hit were thinned out: in the full panel of roughly 79,000, 15% have a hit.
growth inhibition by entry:
recordedMetric: growth inhibition (%)

{"columns": ["compound", "reportedMeasurement"],
 "data": [
  ["CCCCCCCCCCCC(=O)N(C)C", 3],
  ["FC(F)(F)c1nc2nc(Cl)c(Cl)nc2n1CCCN1CCOCC1", 5],
  ["Cc1ccc(S/N=C\\c2ccccc2O)cc1", -1],
  ["CN(C)c1ccc(C(C#N)=C(C#N)C#N)cc1", -2],
  ["C/C(=N\\O)C1CC2C=C(C#N)C1N(Cc1ccccc1)C2 (stereo unspecified)", -4],
  ["CC(C)c1cc(C(C)C)c(O)c(C([O-])[O-])c1.CC(C)c1cc(C(C)C)c(O)c(C([O-])[O-])c1.CC(C)c1cc(C(C)C)c(O)c(C([OH2+])[OH2+])c1.CC(C)c1cc(C(C)C)c(O)c(C([OH2+])[OH2+])c1.[Cu+2].[Cu+2].[OH3+].[OH3+]", 6],
  ["COc1cc(C2c3cc4c(cc3OC(Nc3ccccc3)C2C)OCO4)cc(OC)c1O (stereo unspecified)", -3],
  ["O=[N+]([O-])c1cc(CCl)ccc1CCl", 2],
  ["CCN(CC)C(C)(C)C(=O)/C=C/c1ccccc1", -3],
  ["O=C(N=Nc1ccccc1Cl)NNc1ccccc1Cl", -5],
  ["Cc1cc(O)cc(O)c1N=Nc1ccc([N+](=O)[O-])cc1", 15]
]}
